Recorded values, source PubChem BioAssay.

Test Protocol: sensitizers of A549 cells to miR-34 induction, primary screen, imaging, A549 dox-inducible miR-34, nuclei and caspase counts (AID 1347080); also: test concentration not given here
Cond: A549 miR-34 inducible, Hoechst nuclei count, 48 h; measured here: total cells without miR-34 induction
Mark 1 for cell count under 9000, 0 if at or over.

Q: Please state whether cell count is below 9000 for `CCn1c(=O)c2c(nc(C=Cc3ccc(OC)c(OC)c3)n2C)n(CC)c1=O`
Ans: 0

Q: Please check: cell count for CC(O)CN(CCN(CC(C)O)CC(C)O)CC(C)O (stereo unspecified) , strictly under 9000 or not?
Ans: 0

Q: Does the reported cell count of `O=P(O)(O)C(O)(Cn1ccnc1)P(=O)(O)O` stay below 9000?
Ans: 0

Q: Answer whether the molecule `CC[N+](C)(CC)CCOC(=O)C1c2ccccc2Oc2ccccc21` has cell count strictly less than 9000
Ans: 0

Q: Lab note: cell count threshold 9000. Does this molecule come in strictly under it? `O=S(=O)(O)c1cc(I)c(O)c2ncccc12`
Ans: 1

Q: Say whether its cell count is strictly beneath 9000. Entry: `NCCNC(=O)c1ccc(Cl)cn1`
Ans: 0

Q: hey, is cell count for `C#C[C@]1(OC(C)=O)CC[C@H]2[C@@H]3CCC4=C[C@@H](OC(C)=O)CC[C@@H]4[C@H]3CC[C@@]21C` lower than 9000 or not?
Ans: 0

Q: Could you please tell me whether cell count recorded for `O=c1ccc2cc(O)c(O)cc2o1` is less than 9000?
Ans: 1

Q: Field: below-cutoff. Rule: recorded cell count strictly less than 9000. Subject: CC1(C)S[C@@H]2C(N3C(=O)[C@@H](c4ccccc4)NC3(C)C)C(=O)N2[C@H]1C(=O)O (stereo partly specified)
Ans: 0

Q: Is cell count of `COC(=O)N[C@H](C(=O)N[C@@H](Cc1ccccc1)[C@@H](O)CN(Cc1ccc(-c2ccccn2)cc1)NC(=O)[C@@H](NC(=O)OC)C(C)(C)C)C(C)(C)C` strictly below 9000?
Ans: 0
